pIC50: −log10 of the molar value.
Literature survey of pIC50 (system: RAC-gamma serine/threonine-protein kinase (Homo sapiens, UniProt Q9Y243)).

Give recorded pIC50 with RAC-gamma serine/threonine-protein kinase (Homo sapiens, UniProt Q9Y243) for the following compound: `N#CCn1nc2n(c1=O)-c1cc(-c3ccccc3)c(-c3ccc(C4(N)CCC4)cc3)nc1OC2`
5.00 to 6.00

Reported pIC50 for RAC-gamma serine/threonine-protein kinase (Homo sapiens, UniProt Q9Y243), given `Cc1cnn2c1-c1cc(C(=O)N[C@H](CN)Cc3ccc(F)c(F)c3)sc1CCC2` ?
7.47

Fill in the recorded pIC50 for this compound, with RAC-gamma serine/threonine-protein kinase (Homo sapiens, UniProt Q9Y243) as test system: `O=C(c1cc(O)ccc1F)c1c[nH]c2ncccc12`
≥ 5.00

Give recorded pIC50 with RAC-gamma serine/threonine-protein kinase (Homo sapiens, UniProt Q9Y243) for the following compound: Cn1nccc1-c1ccc2c(c1)CN(C(CN)c1ccc(F)cc1)C2=O (centres unmarked)
< 5.30

Give pIC50 (RAC-gamma serine/threonine-protein kinase (Homo sapiens, UniProt Q9Y243)) of the following compound: `NC1(c2ccc(-c3nc4c(cc3-c3ccccc3)-c3n[nH]cc3CCC4)cc2)CCC1`
< 5.00

What reported pIC50 corresponds to `CN(C)C[C@H](Cc1cccc(F)c1)NC(=O)c1cc2c(s1)CCCn1ncc(Cl)c1-2` on RAC-gamma serine/threonine-protein kinase (Homo sapiens, UniProt Q9Y243)?
6.06

What pIC50 appears in the records for this compound with RAC-gamma serine/threonine-protein kinase (Homo sapiens, UniProt Q9Y243)? `Cn1nccc1-c1ccc2c(c1)CN([C@H](CN)Cc1cccc(F)c1)C2=O`
> 6.30

Lab note: need pIC50 with RAC-gamma serine/threonine-protein kinase (Homo sapiens, UniProt Q9Y243) for entry `CCN1CC(=O)Nc2ncnc(N3CC4CCC(C3)N4C(=O)[C@H](CNC(C)C)c3ccc(Cl)cc3)c21` , please look it up.
9.72

Request: pIC50, test system RAC-gamma serine/threonine-protein kinase (Homo sapiens, UniProt Q9Y243), entry `Cn1nccc1-c1ccc2c(c1)CN([C@H](CN)CC1CCCCC1)C2=O`
> 6.30

Look up pIC50 with RAC-gamma serine/threonine-protein kinase (Homo sapiens, UniProt Q9Y243) for this compound: `CCN(CC)c1ccc(Nc2cnc3[nH]ccc3c2)cc1`
≥ 5.00

Fill in the recorded pIC50 for this compound, with RAC-gamma serine/threonine-protein kinase (Homo sapiens, UniProt Q9Y243) as test system: `NC[C@H](Cc1ccccc1F)NC(=O)c1cc2c(s1)CCCn1ncc(Cl)c1-2`
7.02

Provide value of pIC50 for this record tested with RAC-gamma serine/threonine-protein kinase (Homo sapiens, UniProt Q9Y243): `Cn1ncc(-c2cncnc2)c1-c1ccc2c(c1)CN([C@H](CN)Cc1cccc(F)c1)C2=O`
< 5.30

Lookup: pIC50 / RAC-gamma serine/threonine-protein kinase (Homo sapiens, UniProt Q9Y243) / `CN1C(=O)COc2nc(-c3ccc(C4(N)CCC4)cc3)c(-c3cccnc3)cc21`
5.00 to 6.00

Request - read-out pIC50 | tested on RAC-gamma serine/threonine-protein kinase (Homo sapiens, UniProt Q9Y243) | compound `O=C(c1cccc(O)c1F)c1c[nH]c2ncc(-c3ccccc3)cc12`
≥ 5.00
